# System: M. phlei ATCC 11758
assay_endpoint: MIC

compound: CCN(CC)c1ccc2c(c1)Sc1cc(C(F)(F)F)cc(NC3CCN(CCN)CC3)c1N2.Cl.Cl.Cl
endpoint_value: 8 µg/mL

compound: Cl.NC1CCCC(CNc2cc(C(F)(F)F)cc3c2Nc2ccc(N4CCCC4)cc2S3)C1 (centres unmarked)
endpoint_value: 4 µg/mL

compound: CC1CC(C)CN(c2ccc3c(c2)Sc2cc(C(F)(F)F)cc(NC4CCN(CCN)CC4)c2N3)C1.Cl.Cl.Cl (centres unmarked)
endpoint_value: 4 µg/mL

compound: CC1(C)CCCN(c2ccc3c(c2)Sc2cc(C(F)(F)F)cc(NC4CCN(CCN)CC4)c2N3)C1.Cl.Cl
endpoint_value: 2 µg/mL

compound: CC1CCN(c2ccc3c(c2)Sc2cc(C(F)(F)F)cc(NC4CCN(CCN)CC4)c2N3)CC1.Cl.Cl
endpoint_value: 8 µg/mL

compound: Cl.Cl.NCCNCCC(=O)Nc1cc(C(F)(F)F)cc2c1Nc1ccc(N3CCCC3)cc1S2
endpoint_value: 16 µg/mL

compound: CC1CCCN(c2ccc3c(c2)Sc2cc(C(F)(F)F)cc(NC4CCN(CCN)CC4)c2N3)C1.Cl.Cl (centres unmarked)
endpoint_value: 8 µg/mL

compound: Cl.Cl.NCCN1CCC(Nc2cc(C(F)(F)F)cc3c2Nc2ccc(N4CCCC4)cc2S3)CC1
endpoint_value: 4 µg/mL
